- Test system: U2OS
- test_protocol: Multiplex assay against U2OS
- Format: toxicity, cell-based
- test_context: human, 12 h, 1 µM, compound concentration 1 uM, replicate 1
measurement_kind: Population Healthy Nuclei (%)
// return numeric value only (unit: %, not printed)

Briefly, Population Healthy Nuclei (%) measured for N#CCNC(=O)c1ccc(-c2ccnc(Nc3ccc(N4CCOCC4)cc3)n2)cc1 [MOMELOTINIB] : 77

# Population Healthy Nuclei (%) of `Cc1ccc(NC(=O)Nc2cc(C(F)(F)F)ccc2F)cc1Nc1ccc2c(c1)NC(=O)/C2=C\c1ccc[nH]1` = 66

Reported Population Healthy Nuclei (%) for `Cc1c(P(=S)(c2ccccc2)c2ccccc2)n2ccccc2[n+]1C/C=C/c1ccccc1.[Br-]` was 69

###

Quick reference: Population Fragmented Nuclei (%) of the listed items.
- Tested on: Fibroblast
- test_protocol: Multiplex assay against human fibroblast
- Assay type: toxicity, cell-based
- test_context: 24 h, 1 µM, compound concentration 1 uM, replicate 2
The reply should contain only the number, in %.

Example cases with answers are listed next.
INSERT INTO measurements (compound, assay_system, measurement_kind, observed) VALUES
  ('CC[C@H](Nc1ncnc2[nH]cnc12)c1nc2cccc(F)c2c(=O)n1-c1ccccc1 [IDELALISIB]', 'Fibroblast', 'Population Fragmented Nuclei (%)', 56),
  ('CCCc1cc(C)[nH]c(=O)c1CNC(=O)c1cc(-c2ccc(N3CCN(C(C)C)CC3)nc2)cc2c1cnn2C(C)C', 'Fibroblast', 'Population Fragmented Nuclei (%)', 20),
  ('Cc1c(Nc2ccc(S(=O)(=O)N3CCN(C)CC3)cc2F)nc2ccc(Nc3cnn(C4CC4)c3)cn2c1=O', 'Fibroblast', 'Population Fragmented Nuclei (%)', 57);

Let us examine a further case.
According to the records, this compound C[C@@H](Oc1cc(-n2cnc3ccc(CN4CCN(C)CC4)cc32)sc1C(N)=O)c1ccccc1C(F)(F)F [GSK-461364] displays Population Fragmented Nuclei (%) of 14

###

- Test system: Fibroblast
- test_protocol: Multiplex assay against human fibroblast
- Format: toxicity, cell-based
- test_context: 48 h, 1 µM, compound concentration 1 uM, replicate 2
Known Population Hoechst High Intensity Objects (%) of a selection of molecules
Numbers only; they are read as %.

Examples with answers:
INSERT INTO results (smiles_text, unit_label, observed) VALUES
  ('N#Cc1cccc(C(=O)Nc2cc(-c3ccccc3)nn2-c2ccccc2)c1', '%', 8),
  ('CCCc1cc(C)[nH]c(=O)c1CNC(=O)c1cc(-c2ccc(N3CCN(C(C)C)CC3)nc2)cc2c1cnn2C(C)C', '%', 10);

// next item, Population Hoechst High Intensity Objects (%) requested
Kindly note the recorded Population Hoechst High Intensity Objects (%) for `C=CC(=O)Nc1cc(-n2c(=O)ccc3cnc4ccc(-c5ccc(NS(C)(=O)=O)cc5)cc4c32)ccc1C` , which is 12

###

- Tested on: U2OS
- test_protocol: Multiplex assay against U2OS
- Assay type: toxicity, cell-based
- test_context: human, 12 h, 10 µM, compound concentration 10 uM, replicate 1
Outcome: Criterion met for Population Fragmented Nuclei (%) of at least 10%; Criterion not met for anything lower.

Solved entries:
INSERT INTO measurements (compound, classification) VALUES
  ('C[C@@H](Oc1cc(-n2cnc3ccc(CN4CCN(C)CC4)cc32)sc1C(N)=O)c1ccccc1C(F)(F)F [GSK-461364]', 'Criterion met'),
  ('Cc1c(P(=S)(c2ccccc2)c2ccccc2)n2ccccc2[n+]1C/C=C/c1ccccc1.[Br-]', 'Criterion met'),
  ('Cc1c(Nc2ccc(S(=O)(=O)N3CCN(C)CC3)cc2F)nc2ccc(Nc3cnn(C4CC4)c3)cn2c1=O', 'Criterion not met'),
  ('CC[C@@H]1C(=O)N(C)c2cnc(Nc3ccc(C(=O)NC4CCN(C)CC4)cc3OC)nc2N1C1CCCC1 [BI-2536]', 'Criterion met'),
  ('N#CCNC(=O)c1ccc(-c2ccnc(Nc3ccc(N4CCOCC4)cc3)n2)cc1 [MOMELOTINIB]', 'Criterion met');

Exercise: Decide: Population Fragmented Nuclei (%) of `CC(C)c1cc(Nc2nc(N3CCC[C@H](N)C3)ncc2C(N)=O)cc(C(C)C)n1` >= 10%?
Key: Criterion met

Exercise: For this compound, is measured Population Fragmented Nuclei (%) 10% or higher? `c1ccc(-c2oc3ncnc(NC[C@@H]4CCCO4)c3c2-c2ccccc2)cc1`
Key: Criterion met
